Task for the reader: assign each of the following binders its reported pKd.
Biological target: recombinant N-terminal His6-tagged human FABP3 (human, NT-650-NHS red amine-reactive fluorescent dye (in the MST experiments only))
Sequence (P05413 whole entry): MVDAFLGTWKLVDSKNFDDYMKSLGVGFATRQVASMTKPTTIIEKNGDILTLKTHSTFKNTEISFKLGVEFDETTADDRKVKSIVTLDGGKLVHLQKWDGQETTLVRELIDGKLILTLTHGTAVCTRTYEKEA
Assay: MST
Square brackets hold non-standard residues; d marks the D form. Ends that are not written are not given here.
Answers are plain numbers, as −log10 of the molar value.

BINDER: [dA][dV]G[dL]G[dS][dL]G[dC][dA]-NH2 (N-terminus assumed; SMILES CC(C)C[C@@H](NC(=O)CNC(=O)[C@H](NC(=O)[C@@H](C)N)C(C)C)C(=O)NCC(=O)N[C@H](CO)C(=O)N[C@H](CC(C)C)C(=O)NCC(=O)N[C@H](CS)C(=O)N[C@H](C)C(N)=O) [RI-A-CooP]
pKd: 4.62
//
BINDER: ACGLAGLGVA-NH2 [A-[Ala^4]CooP]
pKd: 6.96
//
BINDER: ACGASGLGVA-NH2 [A-[Ala^3]CooP]
pKd: 6.60
//
BINDER: ACGLSGAGVA-NH2 [A-[Ala^6]CooP]
pKd: 6.72
//
BINDER: ACGLSGLGAA-NH2 [A-[Ala^8]CooP]
pKd: 6.92

Could you now consider this next binder?
Which measured pKd value corresponds to ACALSGLGVA-NH2 [A-[Ala^2]CooP] ?
7.05
